test_protocol: log P by reversed-phase HPLC analogously to OECD Guideline 117
Format: physicochemical
measurement_setup: reversed-phase C18 HPLC column; neutral range, pH 7.8, 0.001 molar aqueous ammonium hydrogencarbonate/acetonitrile; read-out: logP (neutral)
Protocol: The log P values were determined analogously to OECD Guideline 117 (EC Directive 92/69/EEC) by HPLC (high-performance liquid chromatography) using reversed-phase columns (C 18), by the following methods: [a] […] Calibration is effected with solutions of a homologous series of unbranched alkan-2-ones (having 3 to 16 carbon atoms) with known log P values (log P values determined on the basis of the retention times by linear interpolation between two successive alkanones).
With a cut-off of 3, any chromatographic logP strictly below it is called condition met; any chromatographic logP meeting it or above is called condition not met.

The examples below pair each entry with its known result.
Prompt: Hello, is chromatographic logP of the following compound strictly smaller than 3? Cc1cc(C)c(-n2cnc(C(F)(F)F)cc2=O)cc1SCC(F)(F)F [Example 5]
Response: condition not met

Prompt: Decide: chromatographic logP of Cc1cc(F)c(NC(=O)/C=C(\O)C(F)(F)F)cc1SCC(F)(F)F [XXXI-1] strictly below 3?
Response: condition met

Prompt: # strict comparison: is reported chromatographic logP < 3? input = Cc1cc(C)c([S+]([O-])CC(F)(F)F)cc1-n1cnc(C(F)(F)F)cc1=O (racemic) [Example 6]
Response: condition met

Prompt: Dear reviewer, please state whether Cc1cc(F)c(-n2cnc(C(F)(F)F)cc2=O)cc1[S+]([O-])CC(F)(F)F (stereo not shown) [Example 2] has chromatographic logP strictly beneath 3.
Response: condition met

New cases:
Prompt: is_below(chromatographic logP, 3) for Cc1cc(F)c(-n2cnc(C(F)(F)F)cc2=O)cc1SCC(F)(F)F [Example 1] ?
Response: condition not met

Prompt: Please determine if Cc1cc(C)c(SCC(F)(F)F)cc1NC(=O)/C=C(\N)C(F)(F)F [IIa-2] is below 3 in terms of chromatographic logP.
Response: condition not met

Prompt: Threshold test, chromatographic logP < 3: Cc1cc(F)c(NC(=O)/C=C(\N)C(F)(F)F)cc1SCC(F)(F)F [IIa-1]
Response: condition not met
